Hey, just so you know, these numbers are from PubChem BioAssay.

Field: composite z-score. Provide a value for each of the molecules that follow.
- experimental_protocol: compound binding in COS7 lysate, probe aLAP1, primary screen, cell lysate, small-molecule microarray (AID 1124);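 note: lysate comes from COS7 cells expressing LAP1 and is applied at 0.3 µg/mL; score merges spot fluorescence near 667 nm with signal-to-noise over triplicate slides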
- settings: probe aLAP1, fluorescence, higher = more signal
Write no unit; give the number alone.

Ask: Reported composite z-score for O=C1OCCC/C=C\[C@H]2OC34C=CCN(c5ccc6ccccc6c5)C(=O)[C@H]3N(CCCCCCO)C(=O)[C@@H]4C12 (stereo not given in full) : what is it?
Reply: 0.978

Ask: Do the same for C=CCOC(=O)[C@H]1[C@@H]2C(=O)O[C@@H](c3ccccc3)[C@@H](c3ccccc3)N2[C@@H](c2ccc(OCCOC(=O)[C@H]3C[C@H]4C(=O)N5CCC[C@H]5C(=O)N4[C@H]3c3ccc(O)cc3)cc2)[C@]12C(=O)Nc1ccccc12 please
Reply: 0.793

Ask: Do the same for COC(=O)c1c(CC[C@@H](CO)NC(=O)N[C@H](Cn2cc(Cc3ccccc3)nn2)C(C)C)oc(C(C)=O)c1C(=O)OC please
Reply: 0.0096

Ask: Do the same for O=C1O[C@@H](c2ccccc2)[C@@H](c2ccccc2)N2[C@@H](c3ccccc3OCCO)[C@]3(C(=O)Nc4ccc(C#CC5=CCCCC5)cc43)[C@@H](C(=O)Nc3nc4ccccc4s3)[C@H]12 please
Reply: 0.399

Ask: Do the same for CN(C)CCCNC(=O)[C@@]1(c2ccc([N+](=O)[O-])cc2)CC(=O)N(C2CCCCC2)[C@@H]1c1ccc(CO)cc1I please
Reply: 0.742

Ask: Do the same for COC(=O)c1c(CC[C@@H](CO)NC(=O)N[C@@H](C)Cn2cc(C3(O)CCCCC3)nn2)oc(C(C)=O)c1C(=O)OC please
Reply: -0.0869

Ask: Do the same for C=C(COC)/C(=C/C[C@@H](OC(C)=O)c1ccc(CO)o1)c1cnc2ccccc2c1 please
Reply: 0.846

Ask: Do the same for COCC(=C=CC[C@H](O)c1ccccc1OCCO)C[C@H](O)c1cc(Cl)cc(Cl)c1O please
Reply: 0.478

Ask: Do the same for CCN(CC)c1ccc(N2CC=CC34O[C@@H]5/C=C\CCC(C)OC(=O)C5[C@H]3C(=O)N(C(CO)C(C)C)[C@@H]4C2=O)cc1 (stereo not given in full) please
Reply: -0.387

Ask: Do the same for COc1cc2c(cc1OC)CN(C(=O)[C@H]1[C@@H]3C(=O)O[C@@H](c4ccccc4)[C@@H](c4ccccc4)N3[C@@H](c3ccc(O)cc3)[C@]13C(=O)Nc1ccc(C#CCNC(N)=O)cc13)CC2 please
Reply: 0.523

Ask: Do the same for COc1cc2c(cc1OC)CN(C(=O)[C@@H]1[C@H]3C(=O)O[C@H](c4ccccc4)[C@H](c4ccccc4)N3[C@H](c3ccc(O)cc3)[C@@]13C(=O)Nc1ccc(C#CC4(O)CCCCCC4)cc13)CC2 please
Reply: 0.548

Ask: Do the same for COC(=O)C=C(CC(O)c1cccc(Cl)c1)OC (stereo not given) please
Reply: 1.02

Ask: Do the same for CCCC#C[Si](O[C@H](CC)c1cn([C@H](CO)Cc2ccccc2)nn1)(C(C)C)C(C)C please
Reply: -0.126

Ask: Do the same for CCOC(=O)[C@H]1CC=C2CC1C(=O)N1CCC[C@@H]1[C@@H]2O[Si](C)(C)C(C)(C)C (stereo not given in full) please
Reply: -0.407

Ask: Do the same for COc1cc(OC)c(C(O)C2C=CC3C(=O)NC(=O)C3N2Nc2ccc(Cl)cc2Cl)cc1Br (stereo not given) please
Reply: 0.474
